Origin of the recorded values: patent US20170260183A1

assay_overview: logP determination by HPLC on reversed-phase columns (OECD Guideline 117)
Format: physicochemical
condition: reversed-phase (C18) HPLC column; acidic range, pH 2.7, 0.1% aqueous formic acid and acetonitrile; read-out: logP[a]
Experimental: The logP values were determined in accordance with OECD Guideline 117 (EC Directive 92/69/EEC) by HPLC (high-performance liquid chromatography) using reversed-phase (RP) columns (C18), by the following methods: [a] […] Calibration is effected using unbranched alkan-2-ones (having 3 to 16 carbon atoms) with known logP values (logP values determined on the basis of the retention times by linear interpolation between two successive alkanone s).
outcome_measure: chromatographic logP

[A] Cc1cc(F)c(-c2cnc3nn(-c4cccnc4)cc3c2)cc1SCC(F)(F)F
[B] CSCCC(=O)Nc1cnc2nn(-c3cccnc3)cc2c1
IN: Field: entry with larger chromatographic logP (options A / B ). Answer by stating the label of the chosen item.
OUT: A
